For each record, write down the corresponding inhibition.
# Measured on: UniProt P61073
# Sequence (P61073 whole entry): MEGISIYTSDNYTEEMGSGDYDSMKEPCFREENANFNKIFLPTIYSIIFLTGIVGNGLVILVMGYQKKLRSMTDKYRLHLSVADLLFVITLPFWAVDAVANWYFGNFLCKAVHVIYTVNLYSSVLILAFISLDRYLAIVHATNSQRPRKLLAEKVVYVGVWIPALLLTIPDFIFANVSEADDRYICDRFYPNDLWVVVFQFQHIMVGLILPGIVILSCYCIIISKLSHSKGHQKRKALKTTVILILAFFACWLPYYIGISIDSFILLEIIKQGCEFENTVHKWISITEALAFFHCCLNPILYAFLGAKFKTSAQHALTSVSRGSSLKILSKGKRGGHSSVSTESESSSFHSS
# Test description: Inhibition of CXCR4-mediated chemotaxis in human MDA-MB-231 cells assessed as reduction in CXCL12alpha-induced cell invasion at 100 nM incubated for 22 hrs by hematoxylin/eosin dye-based matrigel assay relative to control
Please state the figure in %; there is no need to write the unit.

For the molecule shown here, c1ccc(NCc2ccc(CNc3ccccc3)s2)cc1 , give the reported inhibition.
68

For the molecule shown here, Cc1ccccc1NCc1ccc(CNc2ccccc2C)s1 , give the reported inhibition.
61

For the molecule shown here, COc1ccc(NCc2ccc(CNc3ccc(OC)cc3)s2)cc1 , give the reported inhibition.
84

For the molecule shown here, c1cc(CN2CCSCC2)oc1CN1CCSCC1 , give the reported inhibition.
79

For the molecule shown here, Clc1ccc(NCc2ccc(CNc3ccc(Cl)cc3)o2)cc1 , give the reported inhibition.
48

For the molecule shown here, c1cc(CN2CCSCC2)sc1CN1CCSCC1 , give the reported inhibition.
88

For the molecule shown here, Cc1ccc(NCc2ccc(CNc3ccc(C)cc3)o2)cc1 , give the reported inhibition.
75

For the molecule shown here, Fc1ccccc1NCc1ccc(CNc2ccccc2F)o1 , give the reported inhibition.
71

For the molecule shown here, Fc1ccc(NCc2ccc(CNc3ccc(F)cc3)o2)cc1 , give the reported inhibition.
53

For the molecule shown here, CN1CCN(Cc2ccc(CN3CCN(C)CC3)o2)CC1 , give the reported inhibition.
82

For the molecule shown here, CSc1ccc(NCc2ccc(CNc3ccc(SC)cc3)s2)cc1 , give the reported inhibition.
88

For the molecule shown here, Clc1ccc(NCc2ccc(CNc3ccc(Cl)cc3)s2)cc1 , give the reported inhibition.
22

For the molecule shown here, COc1ccccc1NCc1ccc(CNc2ccccc2OC)o1 , give the reported inhibition.
5

For the molecule shown here, Clc1cccc(NCc2ccc(CNc3cccc(Cl)c3)s2)c1 , give the reported inhibition.
51

For the molecule shown here, FC(F)(F)c1cccc(NCc2ccc(CNc3cccc(C(F)(F)F)c3)s2)c1 , give the reported inhibition.
77

For the molecule shown here, CN1CCN(Cc2ccc(CN3CCN(C)CC3)s2)CC1 , give the reported inhibition.
86

For the molecule shown here, COc1ccccc1NCc1ccc(CNc2ccccc2OC)s1 , give the reported inhibition.
52

For the molecule shown here, Clc1ccccc1NCc1ccc(CNc2ccccc2Cl)s1 , give the reported inhibition.
93

For the molecule shown here, c1ccc(NCc2cscc2CNc2ccccc2)cc1 , give the reported inhibition.
72

For the molecule shown here, FC(F)(F)c1ccccc1NCc1ccc(CNc2ccccc2C(F)(F)F)o1 , give the reported inhibition.
24

For the molecule shown here, Cc1ccc(NCc2ccc(CNc3ccc(C)cc3)s2)cc1 , give the reported inhibition.
49
